Test Target: CREB1 (Homo sapiens)
Construct: made in house
Sequence (P16220 269-327 limits assumed): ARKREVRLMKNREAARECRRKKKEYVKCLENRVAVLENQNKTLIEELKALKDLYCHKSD
Measurement Description: Direct-binding FRET assay
Test Parameters: 37°C; N-terminal rhodamine design; mean or single
Where no end group is shown, it is not given here.
Readout Label: Kd

Short answer please: Kd, CREB1 (Homo sapiens), entry SIAATLEKEEANLEKMNKKLAAEIESLLKEKDKLESVLNYHE [JUN-d1] > 1000 nM

* * *

Test Target: CREB3L1 (Homo sapiens, UniProt Q96BA8)
Construct: made in house
Sequence (Q96BA8 290-353 limits assumed): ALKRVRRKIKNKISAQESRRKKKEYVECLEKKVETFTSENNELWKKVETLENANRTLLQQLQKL
Measurement Description: Direct-binding FRET assay
Procedure: The direct binding assay was performed manually in 384-well plates and is similar to a previously described assay. Wells were filled with 20 μL of 1 mM TCEP-HCl. […] Briefly, the Kd of the designed peptide homodimer was experimentally determined and used with previously determined target homodimer Kd values to determine the heterodimer Kd. […] A minimum 15% change in the donor fluorescence upon titrating the acceptor peptide from 0 to 1000 nM was required for a fit to be attempted. […]
Where no end group is shown, it is not given here.
Readout Label: Kd

Item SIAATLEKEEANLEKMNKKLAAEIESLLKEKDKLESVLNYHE [JUN-d1] has what recorded Kd? > 1 µM

* * *

Test Target: ATF5 (Homo sapiens, UniProt Q9Y2D1)
Construct: made in house
Sequence (Q9Y2D1 208-271 limits assumed): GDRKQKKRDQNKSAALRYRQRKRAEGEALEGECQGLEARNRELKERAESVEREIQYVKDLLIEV
Measurement Description: Direct-binding FRET assay
Test Parameters: 37°C; C-terminal rhodamine design; repeat 3; read-out: Kd
pKd: −log10 of the molar value. Where no end group is shown, it is not given here.
Readout Label: pKd

Which pKd is listed for NQIKTLRTRLSKLRKDNLQLEKDIANLERKAKDLRAEKEQLEYEL [ATF4-d1] ? < 5.30

* * *

Test Target: ATF6 (Homo sapiens)
Sequence (P18850 306-369 limits assumed): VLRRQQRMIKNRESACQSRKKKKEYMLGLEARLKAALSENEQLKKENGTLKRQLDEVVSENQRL
Measurement Description: Direct-binding FRET assay
Design: made in house
Test Parameters: 23°C; C-terminal rhodamine design; mean or single
Description: The direct binding assay was performed manually in 384-well plates and is similar to a previously described assay. Wells were filled with 20 μL of 1 mM TCEP-HCl. […] Briefly, the Kd of the designed peptide homodimer was experimentally determined and used with previously determined target homodimer Kd values to determine the heterodimer Kd. […] A minimum 15% change in the donor fluorescence upon titrating the acceptor peptide from 0 to 1000 nM was required for a fit to be attempted. […]
Where no end group is shown, it is not given here.
Readout Label: Kd

Fill in the blank: the reported Kd of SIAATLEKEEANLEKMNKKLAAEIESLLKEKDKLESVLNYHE [JUN-d1] is ____. > 1000 nM

* * *

Test Target: ATF5 (Homo sapiens)
Construct: made in house
Measurement Description: Direct-binding FRET assay
Test Parameters: 37°C; N-terminal rhodamine design; repeat 1; read-out: Kd
Method: The direct binding assay was performed manually in 384-well plates and is similar to a previously described assay. Wells were filled with 20 μL of 1 mM TCEP-HCl. […] Briefly, the Kd of the designed peptide homodimer was experimentally determined and used with previously determined target homodimer Kd values to determine the heterodimer Kd. […] A minimum 15% change in the donor fluorescence upon titrating the acceptor peptide from 0 to 1000 nM was required for a fit to be attempted. […]
Where no end group is shown, it is not given here.
Consider the following sequences and their measured Kd readings.

KRIAYLRQRIAELRNENHVLESRIQRMEKEKDALQQDRDHLEYEL [ATF5-d1] :: > 1000 nM

Now take the following sequence into account.
Entry under review: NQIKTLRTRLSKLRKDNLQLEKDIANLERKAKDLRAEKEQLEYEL [ATF4-d1] . Reported Kd? > 1000 nM
